- study.system: Serine/threonine-protein kinase PLK1 (Homo sapiens) (UniProt P53350)
- Sequence (P53350 whole entry, looked up, the tested form may be a part): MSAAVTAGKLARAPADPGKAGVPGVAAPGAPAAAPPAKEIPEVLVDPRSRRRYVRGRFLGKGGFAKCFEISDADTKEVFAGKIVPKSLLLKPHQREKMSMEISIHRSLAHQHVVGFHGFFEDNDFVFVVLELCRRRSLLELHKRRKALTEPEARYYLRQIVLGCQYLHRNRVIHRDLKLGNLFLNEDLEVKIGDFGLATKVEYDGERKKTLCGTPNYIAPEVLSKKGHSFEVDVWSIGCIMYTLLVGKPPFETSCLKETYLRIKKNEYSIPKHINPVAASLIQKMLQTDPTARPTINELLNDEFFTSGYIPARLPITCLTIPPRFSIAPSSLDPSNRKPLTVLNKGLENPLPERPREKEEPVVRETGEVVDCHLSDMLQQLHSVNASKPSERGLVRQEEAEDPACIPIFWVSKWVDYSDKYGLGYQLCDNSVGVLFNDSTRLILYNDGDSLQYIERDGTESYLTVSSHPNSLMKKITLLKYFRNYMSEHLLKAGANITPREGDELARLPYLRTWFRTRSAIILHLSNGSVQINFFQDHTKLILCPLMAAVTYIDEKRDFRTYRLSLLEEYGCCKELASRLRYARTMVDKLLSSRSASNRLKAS
- test.method.notes: qHTS for Inhibitors of PLK1-PDB (polo-like kinase 1 - polo-box domain): Primary Screen; note: nearly all actives have a fitted effect of over 65% in size; note: potency is the fitted concentration of half-maximal effect
- condition.context: Plk1 PBD binding of FITC phosphopeptide, fluorescence polarization
Among all 360,000 compounds or so, about 10,000 (2.8%) were called active. Roughly 4% stayed inconclusive and do not appear here. What follows is part of a selection rich in actives, with near analogues and random picks from the rest.
property.label: Potency

Problem: What value of Potency has been recorded for this entry: CCc1ccc(/C=N/NC(=O)c2ccc(OC3CCCC3)cc2)s1
Solution: 11.9 µM (active)

Problem: What value of Potency has been recorded for this entry: COC(=O)c1nc(NC(=O)c2ccc(F)cc2)n[nH]1
Solution: 15 µM (active)

Problem: What value of Potency has been recorded for this entry: O=C(N/N=C/c1ccc(Cl)cc1)c1nc2ccc([N+](=O)[O-])cc2c(=O)[nH]1
Solution: 18.9 µM (active)

Problem: What value of Potency has been recorded for this entry: Cc1ccc(NN=Nc2nc3c([nH]2)c(=O)n(C)c(=O)n3C)cc1
Solution: 23.8 µM (active)

Problem: What value of Potency has been recorded for this entry: Cc1[nH][nH]c(=O)c1C(c1ccc(-c2ccc(Cl)cc2)o1)c1c(C)[nH][nH]c1=O
Solution: 26.7 µM (active)

Problem: What value of Potency has been recorded for this entry: COc1cccc(CN(C)C(=O)CC23CC4CC(CC(C4)C2)C3)c1OC
Solution: 29.9 µM (active)

Problem: What value of Potency has been recorded for this entry: C=Cc1ccc(C(=O)N2CCCC(CCC(=O)N3CCN(c4ccccn4)CC3)C2)cc1 (centres undefined)
Solution: 21.2 µM (active)

Problem: What value of Potency has been recorded for this entry: C=CCn1c(=S)[nH]c2scc(-c3ccco3)c2c1=O
Solution: 26.7 µM (active)

Problem: What value of Potency has been recorded for this entry: Cc1ccc(S(=O)(=O)/N=S(\C)C(C)C)cc1 (centres undefined)
Solution: 26.7 µM (active)

Problem: What value of Potency has been recorded for this entry: COC(=O)c1nc(NC(=O)c2ccc(Cl)cc2)n[nH]1
Solution: 26.7 µM (active)

Problem: What value of Potency has been recorded for this entry: O=C(Cc1ccc2c(c1)CCCC2)Nc1ccccc1Cl
Solution: 16.8 µM (active)

Problem: What value of Potency has been recorded for this entry: CSc1nc(C)cc(SC(C(C)=O)C(=O)Nc2ccccc2)n1 (centres undefined)
Solution: 26.7 µM (active)

Problem: What value of Potency has been recorded for this entry: COc1ccc2[nH]c(=S)cc(C)c2c1
Solution: 4.74 µM (active)

Problem: What value of Potency has been recorded for this entry: OCCN1CCN(C(=S)c2ccc(-c3ccccc3)cc2)CC1
Solution: 4.74 µM (active)

Problem: What value of Potency has been recorded for this entry: CCNC(=S)Nc1ccc2c(c1)c(=O)n(C)n2Cc1ccc(Cl)cc1
Solution: 21.2 µM (active)

Problem: What value of Potency has been recorded for this entry: Cn1sc(=O)c2cc(S(=O)(=O)NC3CC3)ccc21
Solution: 2.12 µM (active)

Problem: What value of Potency has been recorded for this entry: COC(=O)c1nc(NC(=O)c2ccccc2)n[nH]1
Solution: 26.7 µM (active)

Problem: What value of Potency has been recorded for this entry: CCc1n[nH]c(=S)n1/N=C/c1c[nH]c2ccc(Br)cc12
Solution: 33.6 µM (active)

Problem: What value of Potency has been recorded for this entry: CN(C)c1ccc(C(=S)N2CCN(C(=S)Nc3ccc(Cl)cc3)CC2)cc1
Solution: 6.7 µM (active)

Problem: What value of Potency has been recorded for this entry: COc1cc(=O)[nH]c(=O)n1C(=O)Cc1ccccc1
Solution: 2.99 µM (active)

Problem: What value of Potency has been recorded for this entry: Cc1nn(C)c(C)c1C(C)NC(=O)c1ccc(OC2CCN(Cc3ccccn3)CC2)cc1 (centres undefined)
Solution: 2.12 µM (active)

Problem: What value of Potency has been recorded for this entry: COC(=O)c1sc(=S)n(-c2ccccc2)c1N
Solution: 10 µM (active)

Problem: What value of Potency has been recorded for this entry: CC1Cc2ccccc2N1C(=O)CSc1nnc(C2CC2)n1C (centres undefined)
Solution: 21.2 µM (active)

Problem: What value of Potency has been recorded for this entry: O=C1CSC(=S)N1c1ccc(Cl)c(Cl)c1
Solution: 26.7 µM (active)

Problem: What value of Potency has been recorded for this entry: COc1ccc(S(=O)(=O)Nc2ccc(O)c(Sc3nc4ccccc4s3)c2)cc1
Solution: 16.8 µM (active)

Problem: What value of Potency has been recorded for this entry: OCC[C@H]1C[C@@H](O)[C@H](O)[C@@]2(OCCc3ccccc32)O1
Solution: 21.2 µM (active)

Problem: What value of Potency has been recorded for this entry: Cc1cc(C(=O)OCC(=O)Nc2nccs2)c2ccccc2n1
Solution: 3.36 µM (active)

Problem: What value of Potency has been recorded for this entry: CCN1CCC2(CC1)N=C(c1ccc(F)cc1)C(=S)N2C(=O)c1ccc(C)cc1
Solution: 15 µM (active)

Problem: What value of Potency has been recorded for this entry: Cn1c(Cc2cccc3ccccc23)nnc1SCC(=O)N1CCN(c2cccc(Cl)c2)CC1
Solution: 29.9 µM (active)

Problem: What value of Potency has been recorded for this entry: CC1CCN(C(=O)c2ccc(S(=O)(=O)Cc3cc(F)ccc3F)c([N+](=O)[O-])c2)CC1
Solution: 15 µM (active)

Problem: What value of Potency has been recorded for this entry: CCOc1ccc(OCC)c(NC(=O)CN(C)S(=O)(=O)c2cccc3nsnc23)c1
Solution: 29.9 µM (active)

Problem: What value of Potency has been recorded for this entry: Cc1ccc2nc(N3C(=O)C(O)=C(C(=O)c4ccco4)C3c3cccc(O)c3)sc2c1 (centres undefined)
Solution: 18.9 µM (active)

Problem: What value of Potency has been recorded for this entry: CC1CCC(NC(=O)CN(C)S(=O)(=O)c2ccc3c(c2)c(=O)n(C)c(=O)n3C)CC1 (centres undefined)
Solution: 18.9 µM (active)

Problem: What value of Potency has been recorded for this entry: Cn1c(=O)oc2cc(S(=O)(=O)NCCC(=O)NCc3ccccc3Cl)ccc21
Solution: 23.8 µM (active)

Problem: What value of Potency has been recorded for this entry: O=C1C(Cl)=C(Oc2ccccc2)C(=O)c2ccccc21
Solution: 1.68 µM (active)

Problem: What value of Potency has been recorded for this entry: COc1ccc(C(=O)CSc2n[nH]c(N)n2)cc1
Solution: 26.7 µM (active)

Problem: What value of Potency has been recorded for this entry: Cc1sc2ncn(CC(=O)NCCCC(=O)N(C)Cc3ccccc3)c(=O)c2c1C
Solution: 26.7 µM (active)

Problem: What value of Potency has been recorded for this entry: CC(C)c1ccc2c(c1)c(SC(C)(C)C)c(CC(C)(C)C(=O)O)n2Cc1ccc(Cl)cc1
Solution: 16.8 µM (active)

Problem: What value of Potency has been recorded for this entry: COc1ccc(/C=N/NC(=O)C(C)N(c2ccc(OC)cc2)S(C)(=O)=O)cc1 (centres undefined)
Solution: 26.7 µM (active)

Problem: What value of Potency has been recorded for this entry: CC1=NOC(=O)/C1=C\c1ccccc1
Solution: 16.8 µM (active)

Problem: What value of Potency has been recorded for this entry: O=C(NCCCCO)C(F)(F)C(F)(F)C(F)(F)C(=O)NCCCCO
Solution: 18.9 µM (active)

Problem: What value of Potency has been recorded for this entry: Fc1ccc(/C=N/n2c(COc3ccccc3)n[nH]c2=S)cc1
Solution: 23.8 µM (active)

Problem: What value of Potency has been recorded for this entry: O=[N+]([O-])c1cc(S(=O)(=O)Nc2cccc(Cl)c2)ccc1N=Nc1c(O)[nH]c2ccccc12
Solution: 84.4 µM (active)

Problem: What value of Potency has been recorded for this entry: O=c1cc(-c2ccccc2)nc(N2CCCCC2)[nH]1
Solution: 23.8 µM (active)

----------
- study.system: Serine/threonine-protein kinase PLK1 (Homo sapiens) (UniProt P53350)
- test.method.notes: qHTS for Inhibitors of PLK1-PDB (polo-like kinase 1 - polo-box domain): Primary Screen; note: nearly all actives have a fitted effect of over 65% in size; for max response, negative = inhibition: series mostly up to about 57 µM; % is set by controls: 0 for no effect and ±100 for the full control effect
- condition.context: Plk1 PBD binding of FITC phosphopeptide, fluorescence polarization
Hit rate of the full screen: of about 360,000 compounds, about 10,000 (2.8%) were called active. Inconclusive results (about 4%) are left out. The list comes from a sample in which actives are over-represented; it also holds close analogues and randomly drawn compounds.
Provide the reported max response, negative = inhibition of each item.

Problem: What value of max response, negative = inhibition has been recorded for this entry: CC(=O)Nc1cc(-c2cccc(CO)c2)cn2c(-c3cccc(C(F)(F)F)c3)cnc12
Solution: -14.2% (inactive)

Problem: What value of max response, negative = inhibition has been recorded for this entry: O=C(/C=C/c1ccccc1Cl)Nc1ccc(S(=O)(=O)Nc2ncccn2)cc1
Solution: -7.83% (inactive)

Problem: What value of max response, negative = inhibition has been recorded for this entry: O=C(C1CCCO1)N1CCN(C(=O)C23CC4CC(CC(C4)C2)C3)CC1 (centres undefined)
Solution: -0.452% (inactive)

Problem: What value of max response, negative = inhibition has been recorded for this entry: Nc1ncnc2c1ncn2[C@@H]1O[C@H](C(=O)NS(=O)(=O)c2c(Cl)nc3sccn23)[C@@H](O)[C@H]1O
Solution: -12.2% (inactive)

Problem: What value of max response, negative = inhibition has been recorded for this entry: COc1ccc(Cc2n[nH]c(=S)n2NC(=O)Nc2ccc(C)cc2)cc1
Solution: -9.65% (inactive)

Problem: What value of max response, negative = inhibition has been recorded for this entry: CCOC1=C2[C@H]([C@H]3C(=O)N(c4ccccc4)C(=O)[C@H]3C1)[C@@H](c1ccccc1)N(S(=O)(=O)c1ccc(C)cc1)[C@H]2c1ccccc1
Solution: 1.42% (inactive)

Problem: What value of max response, negative = inhibition has been recorded for this entry: O=C(NCc1nnnn1-c1ccc(Cl)cc1)c1ccc2c(c1)OCO2
Solution: -15.4% (inactive)

Problem: What value of max response, negative = inhibition has been recorded for this entry: CCNC(=O)C1(C)CCCN(C(=O)c2ccc3ccccc3n2)C1 (centres undefined)
Solution: -13.8% (inactive)

Problem: What value of max response, negative = inhibition has been recorded for this entry: CC(C)c1cccc(-c2csc(C(O)c3ccccc3)n2)c1 (centres undefined)
Solution: -9.83% (inactive)
